# measuredTarget: Urotensin-2 receptor (Homo sapiens, UniProt Q9UKP6)
# Sequence (Q9UKP6 whole entry): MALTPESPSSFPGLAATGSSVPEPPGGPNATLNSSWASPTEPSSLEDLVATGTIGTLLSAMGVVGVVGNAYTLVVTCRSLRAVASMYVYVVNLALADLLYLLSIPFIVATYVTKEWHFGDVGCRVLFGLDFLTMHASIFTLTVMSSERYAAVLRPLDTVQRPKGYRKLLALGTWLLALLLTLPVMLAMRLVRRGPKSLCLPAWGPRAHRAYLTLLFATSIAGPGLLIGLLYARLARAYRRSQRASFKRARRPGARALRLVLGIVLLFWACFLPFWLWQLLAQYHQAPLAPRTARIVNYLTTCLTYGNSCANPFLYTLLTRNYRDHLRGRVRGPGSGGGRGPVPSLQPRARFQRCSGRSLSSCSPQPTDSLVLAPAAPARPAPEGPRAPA
# assaySummary: Displacement of [125I]hU-2 from human recombinant Urotensin 2 receptor expressed in HEK293 cells
Provide the reported pKi of each item.
// pKi is dimensionless: -log10 of concentration (M)

Query: Item COCCN(CC(=O)N1CCCC(c2ccccc2)C1CN1CCCC1)c1ccc(Cl)c(Cl)c1 (stereo not drawn) has what recorded pKi?
Response: 8.10

Query: Do the same for O=C(Cn1c(=O)oc2ccc(Cl)cc21)N1CCCC(c2ccccc2)C1CN1CCCC1 (racemic) please
Response: 8.30

Query: Do the same for O=C1COc2cc(Cl)c(Cl)cc2N1CC(=O)N1CCCC(c2ccccc2)C1CN1CCCC1 (racemic) please
Response: 9.40

Query: Do the same for N#CCN(CC(=O)N1CCCC(c2ccccc2)C1CN1CCOCC1)c1ccc(Cl)c(Cl)c1 (racemic) please
Response: 8.22

Query: Do the same for O=C(Cn1c(=O)oc2ccc(Cl)cc21)N1CCCC(c2ccccc2)C1CN1CCOCC1 (racemic) please
Response: 7.40

Query: Do the same for O=C(Cn1c(=O)sc2ccc(Cl)cc21)N1CCCC(c2ccccc2)C1CN1CCOCC1 (racemic) please
Response: 8.22

Query: Do the same for Cc1cc2ncc(=O)n(CC(=O)N3CCCC(c4ccccc4)C3CN3CCOCC3)c2cc1C (racemic) please
Response: 8.30

Query: Do the same for CN(CC(=O)N1CCCC(c2ccccc2)C1CN1CCOCC1)c1ccc(Cl)c(Cl)c1 (racemic) please
Response: 7.10
